B1: FBXO34 (parent)
chain: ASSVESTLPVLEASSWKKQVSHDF

Variants of: B1
Experiment: protein stability index of a GFP-peptide fusion (GPS, HEK-293T) (PSI 1-6); higher = more stable;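 also: lentivirally expressed fusions sorted by FACS into six bins by GFP to DsRed ratio, PSI derived from sequencing read proportions per bin multiplied by bin number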
Conditions: c terminus: a fixed tail appended

Variant Spec: V20F
protein stability index: 3.72

Variant Spec: V10A
protein stability index: 3.64

Variant Spec: H22D
protein stability index: 3.65

Variant Spec: W16H
protein stability index: 4.31

Variant Spec: A13N
protein stability index: 3.21

Variant Spec: S2W
protein stability index: 2.56

Variant Spec: F24L
protein stability index: 2.31

Variant Spec: H22V
protein stability index: 2.83

Variant Spec: V4R
protein stability index: 2.64

Variant Spec: L11T
protein stability index: 2.87

Variant Spec: W16D
protein stability index: 5.44

Variant Spec: H22I
protein stability index: 2.84

Variant Spec: A1Y
protein stability index: 1.78

Variant Spec: S6P
protein stability index: 2.96

Variant Spec: S15G
protein stability index: 3.65

Variant Spec: K17W
protein stability index: 2.02

Variant Spec: P9C
protein stability index: 3.55

Variant Spec: A1F
protein stability index: 2.11

Variant Spec: S14G
protein stability index: 2.8

Variant Spec: S3T
protein stability index: 3.22

Variant Spec: W16A
protein stability index: 4.01

Variant Spec: W16G
protein stability index: 4.66
